- Test system: epidermal hyperplasia induced by TPA
- test description: TPA-induced epidermal hyperplasia on dorsal skin of mice
- Format: in vivo, male BALB/c mice
- test parameters: ED50; topical in acetone at 1 minute, 24 and 48 hours after TPA; epidermal thickness 72 hours after TPA
Measured Amount of test compound required for 50% suppression of epidermal hyperplasia values are reported for all entries that follow.

# example entries with known answers
compound	obs value
O=C(NO)C1Cc2nccnc2CN1S(=O)(=O)c1cccs1 (single isomer, unassigned; (+))	69 10^−6 g/cm^2
O=C(NO)C1Cc2nccnc2CN1S(=O)(=O)c1ccc(F)cc1 (single isomer, unassigned; (+))	120 10^−6 g/cm^2

Note: attention shifts to another entry.
Q. What does the record list as Amount of test compound required for 50% suppression of epidermal hyperplasia for COCCCOc1ccc(S(=O)(=O)N2Cc3nccnc3CC2C(=O)NO)cc1 (single isomer, unassigned; (+)) ?
A. 300 10^−6 g/cm^2
